system: EPHB1; details: concentration: 1 μM, replicates: in singlicate; n = 1;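 further: KINOMEscan kinase panel screen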
recordedMetric: %Inh (%)
Answers are plain numbers, in %.

{"columns": ["compound", "measurementUnit", "%Inh"],
 "data": [
  ["COc1cc(Nc2nccc(N3CCC(NC(=O)Nc4ccc5c(c4)OCO5)C3)n2)cc(OC)c1OC (centres unmarked)", "%", 7]
]}

// batch mode: one %Inh value per listed entry
1. Cc1ccc(-c2ccc3occ(-c4ccc(S(C)=O)cc4)c3c2)nn1 (centres unmarked)
2. CC(C)NCC(Cc1ccccc1)NC(=O)c1cc(Br)c(-c2ccnc3[nH]ccc23)s1.Cl.Cl (centres unmarked)
3. Cc1ccc(NC(=O)c2ccc(Cl)c(Cl)c2)cc1-c1ccc(C(=O)Nc2ccncc2)cc1

# output
1. 0
2. 16
3. 17

// batch mode: one %Inh value per listed entry
1. COc1cccc2c(-c3ccncc3)c(-c3ccc(F)cc3)nn12
2. Cc1ccccc1CC(=O)N1CCc2cc(-c3cn(C)c4ncnc(N)c34)ccc21
3. Cl.N#CCc1ccc(Nc2nccc(Nc3ccc(Oc4ccccc4)cc3)n2)cc1
4. NCCC(NC(=O)c1cc(Br)c(-c2ccnc3[nH]ccc23)s1)c1ccccc1.O=C(O)C(F)(F)F.O=C(O)C(F)(F)F (centres unmarked)
5. O=C1NC(=O)C(c2ccccc2Cl)=C1Nc1cccc(Cl)c1
6. O=C(O)C(F)(F)F.O=c1[nH]ccc2nc(N[C@@H]3CCNC3)nc(Nc3ccc4c(c3)S(=O)(=O)CC4)c12
7. Nc1cccc(-c2ccc3c(N)n[nH]c3c2)c1
8. Cc1ccc(Nc2ccnc(Nc3ccc(C)c(F)c3)n2)cc1O.Cl

# output
6
8
0
4
8
9
9
1

// batch mode: one %Inh value per listed entry
1. Cn1cc(-c2cnc(N)c3c(-c4ccc5c(c4)CCN5C(=O)Cc4ccccc4)csc23)cn1
2. O=C(O)C(F)(F)F.O=c1[nH]ccc2nc(N[C@@H]3CCNC3)nc(Nc3cc(Cl)cc(Cl)c3)c12
3. Nc1ncc(-c2ccc3nccc(-c4ccncc4)c3c2)cc1S(=O)(=O)N1CCCCC1
4. CNc1nccc(-c2ccc3c(N)n[nH]c3c2)n1
5. N#CC1(c2cccc(C(=O)Nc3cccc(Oc4ccc5nc(NC(=O)C6CC6)sc5n4)c3)c2)CC1

# output
6
28
0
5
95.8

---

For each entry below, report its %Inh value.
test system: NEK1; conditions: concentration: 1 μM, replicates: in singlicate; n = 1
Answers are plain numbers, in %.

The examples below pair each entry with its known result.
{"columns": ["compound", "measurementUnit", "%Inh"],
 "data": [
  ["O=C(O)C(F)(F)F.O=c1[nH]ccc2nc(N[C@@H]3CCNC3)nc(Nc3ccc4c(c3)S(=O)(=O)CC4)c12", "%", 6],
  ["COc1cccc(CC(=O)N2CCc3cc(-c4cn(C)c5ncnc(N)c45)ccc32)c1", "%", 21],
  ["O=C(O)C(F)(F)F.O=c1[nH]ccc2nc(N[C@@H]3CCNC3)nc(Nc3cc(Cl)cc(Cl)c3)c12", "%", 28]
]}

// batch mode: one %Inh value per listed entry
1. CC(C)c1nc(-c2ccc(F)c(NS(=O)(=O)c3c(F)cccc3F)c2)c(-c2ccnc(Nc3ccc(N4CCOCC4)nc3)n2)s1
2. Nc1cccc(-c2ccc3c(N)n[nH]c3c2)c1
3. Cl.N#CCc1ccc(Nc2nccc(Nc3ccc(Oc4ccccc4)cc3)n2)cc1
4. COc1cc(Nc2nccc(N3CCC(NC(=O)Nc4ccc5c(c4)OCO5)C3)n2)cc(OC)c1OC (centres unmarked)
5. Cn1cc(-c2ccc3c(c2)CCN3C(=O)Cc2cc(F)cc(C(F)(F)F)c2)c2c(N)ncnc21
6. CC(C)c1nc(-c2cccc(NS(=O)(=O)c3c(F)cccc3F)c2)c(-c2ccnc(Nc3ccc(N4CCOCC4)nc3)n2)s1.Cl
7. CC(=O)Nc1cn2nc(Oc3cccc(NC(=O)c4cccc(C(F)(F)F)c4)c3)ccc2n1

# output
1. 16
2. 11
3. 0
4. 46
5. 9
6. 0
7. 0

---

test system: ROS1; settings: concentration: 1 μM, replicates: in singlicate; n = 1
recordedMetric: %Inh (%)
Answers are plain numbers, in %.

{"columns": ["smilesStr", "measurementUnit", "%Inh"],
 "data": [
  ["CC(C)c1nc(-c2ccc(F)c(NS(=O)(=O)c3c(F)cccc3F)c2)c(-c2ccnc(Nc3ccc(N4CCOCC4)nc3)n2)s1", "%", 17],
  ["CSc1ccc(NC2=C(c3ccc(Cl)cc3)C(=O)NC2=O)cc1", "%", 3],
  ["N#Cc1cnc2cc(-c3cnc(CNCCN4CCOCC4)s3)ccc2c1Nc1ccc(Oc2ccccc2)cc1", "%", 0],
  ["Cn1cc(-c2cnc(N)c3c(-c4ccc5c(c4)CCN5C(=O)Cc4ccccc4)csc23)cn1", "%", 0],
  ["Cc1ccc(NC(=O)c2ccnc(N3CCCCC3)c2)cc1-c1ccc(C(=O)NCC2CC2)cc1", "%", 10]
]}

// batch mode: one %Inh value per listed entry
1. Cc1ccc(Nc2ccnc(Nc3ccc(C)c(F)c3)n2)cc1O.Cl
2. COc1ccc(C2=C(Nc3cccc(O)c3)C(=O)NC2=O)cc1
3. CN(C)CCOc1ccc(-c2cc(-c3ccc(Cl)c(O)c3)c(-c3ccncc3)[nH]2)cc1.Cl.Cl
4. Fc1cc(Cl)ccc1Nc1ccnc2cc(-c3ccc(CN4CCSCC4)o3)ccc12
5. CCOc1nccc(-c2c(-c3ccc(F)cc3)ncn2C2CCNCC2)n1
6. CC(C)c1nc(-c2cccc(NS(=O)(=O)c3c(F)cccc3F)c2)c(-c2ccnc(Nc3ccc(N4CCOCC4)nc3)n2)s1.Cl
7. Nc1ncc(-c2ccc3nccc(-c4ccncc4)c3c2)cc1S(=O)(=O)N1CCCCC1

# output
[33, 0, 10, 20, 11, 0, 43]

// batch mode: one %Inh value per listed entry
1. Cc1ccc(O)cc1Nc1ccnc2ccc(C(C)(C)C)cc12
2. Cl.N#CCc1ccc(Nc2nccc(Nc3ccc(Oc4ccccc4)cc3)n2)cc1

# output
[28, 0]

---

For each entry below, report its %Inh value.
test system: ERK2; construct: gene MAPK1; settings: concentration: 1 μM, replicates: in singlicate; n = 1
Numbers only, in %.

{"columns": ["smilesStr", "%Inh, %"],
 "data": [
  ["Cc1ccc(Nc2ccnc(Nc3ccc(C)c(F)c3)n2)cc1O.Cl", 0],
  ["CSc1ccc(NC2=C(c3ccc(Cl)cc3)C(=O)NC2=O)cc1", 29]
]}

// batch mode: one %Inh value per listed entry
1. CCn1cnc2c(NCc3ccccc3)ncnc21
2. O=C(Nc1n[nH]c2nc(-c3cccc(O)c3)ccc12)C1CC1
3. COc1cccc(-c2nc(-c3ccccc3)[nH]c2-c2ccncc2)c1
4. O=C1NC(=O)C(c2ccccc2Cl)=C1Nc1cccc(Cl)c1
5. CS(=O)(=O)c1cccc(CNc2nc(Nc3ccc4c(c3)CCC(=O)N4)ncc2C(F)(F)F)c1

# output
1: 0; 2: 0; 3: 0; 4: 0; 5: 17

// batch mode: one %Inh value per listed entry
1. N#CC1(c2cccc(C(=O)Nc3cccc(Oc4ccc5nc(NC(=O)C6CC6)sc5n4)c3)c2)CC1
2. COC(=O)Nc1nc2ccc(Oc3ccc(NC(=O)Nc4cc(C(F)(F)F)ccc4F)cc3)cc2[nH]1.Cl

# output
0
6

---

tested on: ERN1; conditions: concentration: 1 μM, replicates: in singlicate; n = 1
For each entry below, report its %Inh value.
Give bare numbers, in %.

{"columns": ["compound", "recordedMetric", "testValue"],
 "data": [
  ["CC(=O)Nc1cn2nc(Oc3cccc(NC(=O)c4cccc(C(F)(F)F)c4)c3)ccc2n1", "%Inh", 0],
  ["Cc1nn2c(=O)cc(N3CCO[C@H](C)C3)nc2n1Cc1cccc(Cl)c1Cl", "%Inh", 0],
  ["Cc1cccc(Nc2nc(N[C@H]3CCCC[C@H]3N)ncc2C(N)=O)c1.Cl", "%Inh", 2],
  ["CN1CCN(Cc2ccc(NC(=O)Nc3ccc(N(C)c4ccnc(Nc5ccc(CS(C)(=O)=O)cc5)n4)cc3)cc2)CC1.Cl", "%Inh", 58],
  ["O=C1NC(=O)C(c2ccccc2Cl)=C1Nc1cccc(Cl)c1", "%Inh", 26]
]}

// batch mode: one %Inh value per listed entry
1. N#Cc1cnc2cc(-c3cnc(CNCCN4CCOCC4)s3)ccc2c1Nc1ccc(Oc2ccccc2)cc1
2. Cc1ccc(O)cc1Nc1ccnc2ccc(C(C)(C)C)cc12
3. Cl.O=C(Nc1ccc(Oc2ccc3[nH]c(NC(=O)c4ccco4)nc3c2)cc1)Nc1cc(C(F)(F)F)ccc1F

# output
21
27
0

// batch mode: one %Inh value per listed entry
1. CC(C)c1nc(-c2cccc(NS(=O)(=O)c3c(F)cccc3F)c2)c(-c2ccnc(Nc3ccc(N4CCOCC4)nc3)n2)s1.Cl
2. Cc1ccccc1CC(=O)N1CCc2cc(-c3cn(C)c4ncnc(N)c34)ccc21
3. CC(C)(C)c1ccc(C(=O)Nc2cn3cc(-n4ccnc4)ccc3n2)cc1
4. Nc1ncc(-c2cn[nH]c2)c2scc(-c3ccc4c(c3)CCN4C(=O)Cc3ccccc3)c12
5. CN(c1ccc2c(c1)nc(NCc1ccccc1)n2C)c1ccnc(Nc2ccc(CS(C)(=O)=O)cc2)n1.Cl
6. Cc1ccc(O)cc1Nc1ccnc2cc(-c3ccc(CN4CCCCC4)o3)ccc12
7. CCNC(=O)/C=C/c1n[nH]c2cc(Sc3ccccc3C(=O)NC)ccc12

# output
1. 50
2. 1
3. 25
4. 0
5. 1
6. 23
7. 15

These measurements were taken from paper PMC5540273.
